The measured values listed here are drawn from patent US20160316790A1.

Each record here notes measured MIC.
Tested on: salmonellas
Test summary: Minimum inhibitory concentration in vitro, doubling dilutions
Type: cell-based
Reported conditions: strain FS1303B; read-out: Minimum inhibitory concentration (MIC), Salmonellas FS1303B
Reply with just the number (in µg/mL).

>>> experimental_value("O=c1cccc(CCCF)cc1O")
50

Entry O=c1cccc(Cc2ccccc2)cc1O needs its MIC filled in; supply it.
25

Item CCCCCCCCc1cccc(=O)c(O)c1 : provide MIC
25

Note down MIC recorded for CCc1cccc(=O)c(O)c1
12.5

Give recorded MIC. CCCCc1cccc(=O)c(O)c1
25

---

System: streptococcus
Test summary: Minimum inhibitory concentration in vitro, doubling dilutions
Format: cell-based
Reported conditions: strain TS1205-2, read-out: Minimum inhibitory concentration (MIC), Streptococcus TS1205-2
# MIC per record follows
A number alone suffices; assume µg/mL.

>>> experimental_value("O=c1cccc(Cc2ccccc2)cc1O")
50

Give MIC for CCCCc1cccc(=O)c(O)c1
25

Identify measured MIC corresponding to CCCCCCCCc1cccc(=O)c(O)c1
25

Supply MIC value. Item: O=c1cccc(Cc2ccc(Cl)cc2)cc1O
25

Please report the measured MIC for CCCc1cccc(=O)c(O)c1
25
